B1: glmS ribozyme (parent)
chain: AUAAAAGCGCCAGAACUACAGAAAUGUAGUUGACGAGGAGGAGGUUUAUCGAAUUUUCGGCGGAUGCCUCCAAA

# Variants of: B1
# experimental.protocol: self-cleavage kobs at 10000 uM GlcN6P; higher = faster cleavage; RNA array
# condition.details: with glucosamine-6-phosphate
Variants at the floor of the assay were thinned out.
# if value of self-cleavage kobs at 10000 uM GlcN6P reaches 0.0001 s⁻¹, tag yes (1); if it stays below, tag no (0)

chain_sequence=AUAAAAGAGCCAGAACUACAGAAAUGUAGUUGAUGAGGAGGAGGUUUAUCGAAUUUUCGGCGGUUGCUUCCAAA assigned_category="no (0)"
chain_sequence=AUAAAAGCGCCAGAACUACAGAAAUGUAGUGGACGAGGAGGAGGAUUAUCGAAUUUUCGGCGGAUGCCUCCAAA assigned_category="yes (1)"
chain_sequence=AUAAAUGCGCCAGAACUACAGAAAUGUAGUUGACGAGGAGGAGGUUUAUCGAAUUUUCAGCGGAUGCCGCCAAA assigned_category="no (0)"
chain_sequence=AUAAAAGCGCCAGAAGUACAGAAAUGUAGUUGACGAGGAAGAGGUUUAUCGAAUUUUCGGCGGCUGCCUCCAAA assigned_category="no (0)"
chain_sequence=AUAAAAGCGCCAGAACUACAGAAAUGUAGUUGACGAGGAGGAGGUUUAUCGAACUUUCGGCGGAUACCUCCAAA assigned_category="yes (1)"
chain_sequence=AUAAAAGCGCCAGAAUUACAGAAAUGUAGUUUACGAGGAGGAGGUUUCUCGAAUUUUCCGCGGAUGCCUCCAAA assigned_category="no (0)"
chain_sequence=AUAAAAGCGCCAGAACUACAGAAAUGUAGUUGACGAGGAGGAGGUUUAUCGAAUUUUCCGCGGUUGCCUCGAAA assigned_category="no (0)"
chain_sequence=AUAAAAGCGCAAGCACUACAGAAAUGUAGUUGACGAGGAGGAGGUUUAUCGAAUUUUCGGCGGAUGCCUCCAAA assigned_category="no (0)"
chain_sequence=AUAAAAGCGCCAGAACUACAGAAAUGUAGUUGACGAGGAGGAGGUUUAUCGUAUUUUCGGCGGAUGCCUUCAAA assigned_category="yes (1)"
chain_sequence=AUAAAAGCACCAGAACUACAGAAAUGUAGUUGCCGAGGAGGAGGUUUAUCGAAUUUUCGGCGGAUGCCUCCAAA assigned_category="no (0)"
chain_sequence=AUAAAAGCGCCAGAACUACAGAAAUGUAGUCGACGAGGAGAAGGUUUAUCGAAUUUUCGGCGGAUACCUCCAAA assigned_category="yes (1)"
chain_sequence=AUAAAAGCGCCAGAACUACAGAAAUGUAGAUGACGAGGAGGAGGUUUAUCGAAUUUUCGGCGUAUGCCUCCAAA assigned_category="no (0)"
chain_sequence=AUAAAAGCGCCAGAACUACAGAAAUGUAGUUGACGAGGAGGAGCUUAAUCGAAUUUUCGGCGGAUGCCUCCAAA assigned_category="no (0)"
chain_sequence=AUAAAAGCGCCAGAACUACAGAAAUGUAGUUGACGAGGCGGGGGUUUAUCGAAUUUUCGGCGGCUGGCUCCAAA assigned_category="no (0)"
chain_sequence=AUAAAAGCGCCAAAAGUACAGAAAUGUAGUUGACGAGGAGGAGGUUUAUCGAAUUUUCGGCGGAGGCCUCCAAA assigned_category="no (0)"
chain_sequence=AUAAAACCGCCAGAACUACAGAAAUGUAGUUGACGAGGAGGAGGUUUAAUGAUCUUUCGGCGGAUGCUUCCAAA assigned_category="no (0)"
chain_sequence=AUAAAAGCGCCAGAACUACAGAAAUGUAGUUGACGAGGAGGUGGUUUAUCGGAUUUUCGGCGGAUGCCUCCAAA assigned_category="no (0)"
chain_sequence=AUAAAAGCGCCAGAACUACAGAAAUGUAGUUGACGAGGAGGAGGUUUAUCGAGUUUUCGGCGGAUAACUCCAAA assigned_category="yes (1)"
chain_sequence=AUAAAAGAGCCCGAACUACAGAAAUGUAGUUGACGAGGAGGAGGUUUAUCGAAUUUUCGGCGGAUGCCUCCAAA assigned_category="no (0)"
chain_sequence=AUAAAAGCGCCAGAACUACAGAAAUGUAGUUGACGAGGAGGAGGUUUACUGAAUUCUCGGCGGAUGCCUCCAAA assigned_category="no (0)"
chain_sequence=AUAAAAGCGCCAGAGCUACAGAAAUGUAAUUGACGAGGAGGAGGUUUAUCGAAUUUUCGGCGGAUGCCUCCAAA assigned_category="yes (1)"
chain_sequence=AUAAAAGCGCCAGUACUACAGAAAUGUAGUUGACGAGGAGGAGGUUUAUCGAACUUUCGGCGGAUGCCUCCAAA assigned_category="yes (1)"
chain_sequence=AUAAAAGCGCCAGAACUACAGAAAUGUAGCUGACGAGGAGGAGGUUUAUCGAAUUUUCGGCGGAGGGCUCCAAA assigned_category="no (0)"
chain_sequence=AUAAAAGCGCCAGAACUACAGAAAUGUAGUUGACGAGGAGGAGGUGUAUUGAAUUUUCGGCGGAUGUAGCCAAA assigned_category="no (0)"
chain_sequence=AUAAAAGCGCCAGAAUUACAGAAAUGUAGUUGACGAGGAGGAGGUUUAUCGAAUUUUUGGCGGAUGCCUCCAAA assigned_category="no (0)"
chain_sequence=AUAAAAGCGCCAGAACUACAGAAAUGUAGUUUACGAGGAGGAGGUUUAUCGAAUUUUCGGCGGGUGCCUCUAAA assigned_category="yes (1)"
chain_sequence=AUAAAAGCGCCAUAACUACAGAAAUGUAGUUGACGUGGAGGAGUUUUAUCGAAUUUUCGGCGGAUGCCUCCAAA assigned_category="no (0)"
chain_sequence=AUAAAAGCGCCAGAAUUACAGAAAUGUAGUUGACGAGGAGGAGGUUUAUCGACUUUUCGGCGGAUGCCUCCAAA assigned_category="yes (1)"
chain_sequence=AUAAAAGCGGCAGAACUACAGAAAUGUAGUCGACGAGGAGGAGGUUUAUCGAAUUUUCGGCGGAUGCCUCCAAA assigned_category="no (0)"
chain_sequence=AUAAAAGCGCCAGAACUACAGAAAUGUAGUUGACGAGGAGGAGGUUUAUCGAAGUUUCGGCGGAUGCGUCCAAA assigned_category="no (0)"
chain_sequence=AUAAAGGCGCCAGAUCUACAGAAAUGUAGUUGACGAGGAGGAGGUUUAUCGAAUUUUCAGCGGAUGCCUCCAAA assigned_category="no (0)"
chain_sequence=AUAAAAGCGCCAGAACUACAGAAAUGUAGUUGACGAGGAGGACGUUUAUCGAAUUUUCGGCCGGUGCGUCCAAA assigned_category="no (0)"
chain_sequence=AUAAAAGCGCCAGAACUACAGAAAUGUAGUUGACGAGGAGGAGGUUUAUCGAUUUUUCGGCGGGUGCCUCCAAA assigned_category="yes (1)"
chain_sequence=AUAAAAGCGCCAGAACUACAGAAAUGUAGAUGACGAGAGGGAGGUUUAUCGAAUUUUAGGCGCAUGCCUCAAAA assigned_category="no (0)"
chain_sequence=AUAAAAUCGCCAGAACUACAGAAAUGUAGUUGACGAGGCGGAGGUUUAUCGAAUUUUCGGCGGAUGCCUCCAAA assigned_category="no (0)"
chain_sequence=AUAAAAGCGCCAGAACUACAGAAAUGUAGUUGACGAGGAGGAGGUUUAUCGAAUUCUCGGCGGAUGCCCACAAA assigned_category="no (0)"
chain_sequence=AUAAAAGCGCCAGAACUACAGAAAUGUAGUUGACGAGGAGGAGAUGUAUCGAAUUUUCGGCGGAUGCCGCCAAA assigned_category="no (0)"
chain_sequence=AUAAAAGCGCCAGAACUACAGAAAUGUAGUUGACCAGGAGGAGGUUUAUUCAAUUUUCGGCGGAUGCCUCCAAA assigned_category="no (0)"
chain_sequence=AUAAAAGCGCUAGAACUACAGAAAUGUAGUUGACGAGGAGGAGGUUUAUCGAAUUUCCGGCGGAUGCCUCCAAA assigned_category="no (0)"
chain_sequence=AUAAAAGCGCCAGAACUACAGAAAUGUAGUUGACAAGGAGGAGAUUUAUCGAAUUUUCGGCGGAUGCCUCCAAA assigned_category="no (0)"
chain_sequence=AUAAAAGCGCCAGAACUACAGAAAUGUAGUUGACGAGGCGGAGGUUUAUCGAAUUUUCCGCGGAUGCCUCCAAA assigned_category="no (0)"
chain_sequence=AUAAAAGCGCCAGAACUACAGAAAUGUAGGUGACGAGGAGGAGAUUUAUCGAAUUUUCGGCGGAUGCCUCCAAA assigned_category="no (0)"
chain_sequence=AUAAAAACGCCAGAACUACAGAAAUGUAGUUGACCAGGAGUAGGUUUAUCGAAUUUUCGGCGGAUGCCUCCAAA assigned_category="no (0)"
chain_sequence=AUAAAAGCUCCAGAACUACAGAAAUGUAGUUCACGAGGAGGUGGUUUAUCGAAUUUUCGGCGGAUGCCUCCAAA assigned_category="no (0)"

Hey, just so you know, these numbers are from the supplement of paper PMC7125110.
